As shown below, each of these compounds has a reported EC50 value.
# ASSAYED_TARGET: human GPR40 receptor (Homo sapiens)
# ASSAY_PROTOCOL: IP1 accumulation measurements using the IPOne assay system
# ASSAY_CONDITIONS: 1321N1 cells stably expressing human GPR40; 1 h stimulation at 37° C.
# Description: IP1 accumulation measurements using the IPOne assay system—1321N1 cells stably expressing human GPR40 receptor (Euroscreen, Belgium) are seeded 24 h before the assay in white 384-well plates in culture medium containing 10% FCS, 1% Na-Pyruvate and 400 μg/mL G418. IP1 is assayed according to the manufacturer's description (Cisbio Bioassays, France). […] After an incubation time of 1 h at room temperature plates are measured using an EnVision™, Perkin Elmer. […]
Numbers only here, please. The scale is nM.

[[record]]
smiles_string = "Cc1cc(-c2ccnn2C)cc(C)c1-c1ccc(F)c(COc2ccc([C@H]3C[C@@H]3C(=O)O)nc2)c1"
assayed_target = "human GPR40 receptor (Homo sapiens)"
unit_descriptor = "nM"
assay_result = 6


Note to self: EC50 recorded for Cc1cc(OC2CCOCC2)cc(C)c1-c1cccc(COc2ccc([C@H]3C[C@@H]3C(=O)O)nc2)c1 was 29

Noted for Cc1cc(-c2nnn(CC(C)(C)O)n2)cc(C)c1-c1ccc(F)c(COc2ccc([C@H]3C[C@@H]3C(=O)O)nc2)c1 : its EC50 reads 6

----------
# solubility at 24 h per record follows
# ASSAY_PROTOCOL: Aqueous solubility (buffer vs acetonitrile/water, LC-UV)
# Assay type: physicochemical
# ASSAY_CONDITIONS: kinetic from dmso stock, pH 2.2, 24 h shaking, 2.5% DMSO, read-out: Solubility at pH 2.2
# Method: The aqueous solubility of the compounds of the invention is determined by comparing the amount dissolved in buffer to the amount in an acetonitrile/water (1/1) solution. Starting from a 10 mM DMSO stock solution aliquots are diluted with acetonitrile/water (1/1) or buffer, respectively. After 24 h of shaking, the solutions are filtrated and analyzed by LC-UV. […] Solubility is usually being measured from 0.001 to 0.125 mg/mL at a DMSO concentration of 2.5%. […]
Lab book: enter the figure in µg/mL, no units written.

[[record]]
compound = "Cc1cc(-c2nnn(C)n2)cc(C)c1-c1cccc(COc2ccc([C@H]3C[C@@H]3C(=O)O)nc2)c1 [Example 1]"
recorded_metric = "solubility at 24 h"
unit_descriptor = "µg/mL"
assay_result = 7


Given item Cc1cc(OCCC(C)(C)O)cc(C)c1-c1cccc(COc2ccc([C@H]3C[C@@H]3C(=O)O)nc2)c1 [Example 3] , the value recorded as its solubility at 24 h is 24

----------
# ASSAYED_TARGET: human GPR40 receptor (Homo sapiens, UniProt O14842)
# Sequence (O14842 whole entry): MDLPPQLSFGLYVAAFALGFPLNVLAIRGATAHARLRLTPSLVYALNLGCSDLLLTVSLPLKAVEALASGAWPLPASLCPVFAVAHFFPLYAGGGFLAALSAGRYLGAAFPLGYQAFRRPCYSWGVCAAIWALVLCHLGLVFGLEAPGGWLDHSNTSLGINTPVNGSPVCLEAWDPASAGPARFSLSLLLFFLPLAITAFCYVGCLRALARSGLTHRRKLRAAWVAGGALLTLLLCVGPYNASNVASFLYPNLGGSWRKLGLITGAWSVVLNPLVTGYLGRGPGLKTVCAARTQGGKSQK
# ASSAY_PROTOCOL: IP1 accumulation measurements using the IPOne assay system
# ASSAY_CONDITIONS: 1321N1 cells stably expressing human GPR40; 1 h stimulation at 37° C.
RECORDED_METRIC: pEC50
Formally, pEC50 is defined as -log10 of the concentration c, with c in mol/L.

[[record]]
smiles_string = "Cc1cc(OCCCS(C)(=O)=O)cc(C)c1-c1cccc(COc2ccc([C@H]3C[C@@H]3C(=O)O)nc2)c1"
recorded_metric = "pEC50"
assay_result = 7.43


According to the records, this molecule Cc1cc(-c2ccc(=O)n(C)c2)cc(C)c1-c1cccc(COc2ccc([C@H]3C[C@@H]3C(=O)O)nc2)c1 displays pEC50 of 7.82

Field pEC50 (entry Cc1cnc(-c2cc(C)c(-c3cccc(COc4ccc([C@H]5C[C@@H]5C(=O)O)nc4)c3)c(C)c2)nc1 ) reads 8.22

// COc1cnc(-c2ccc(-c3cc(COc4ccc([C@H]5C[C@@H]5C(=O)O)nc4)ccc3C(F)(F)F)cc2)nc1 : pEC50 value = 8.40

----------
# ASSAYED_TARGET: human GPR40 receptor (Homo sapiens, UniProt O14842)
# ASSAY_PROTOCOL: IP1 accumulation measurements using the IPOne assay system
# ASSAY_CONDITIONS: 1321N1 cells stably expressing human GPR40; 1 h stimulation at 37° C.
Entries and their pEC50 values follow.
Please keep in mind that pEC50 is minus log10 of the molar concentration; only the number is needed.

[[record]]
smiles_string = "Cc1cc(OCC(C)(C)O)cc(C)c1-c1ccc(F)c(COc2ccc([C@H]3C[C@@H]3C(=O)O)nc2)c1"
assay_result = 7.44


Lookup result for COc1ccc(-c2ccc(-c3cc(COc4ccc([C@H]5C[C@@H]5C(=O)O)nc4)ccc3C(F)(F)F)cc2)nn1 ; measured pEC50: 8.00

pEC50 recorded for this compound, CCc1cccc(CC)c1-c1cccc(COc2ccc([C@H]3C[C@@H]3C(=O)O)nc2)c1 , is 7.21

Summary for this compound, COc1cc(C)c(-c2cccc(COc3ccc([C@H]4C[C@@H]4C(=O)O)nc3)c2)c(C)c1 : pEC50 is 7.57

Just so you know, measured pEC50 for Cc1cc(OCC2(C)COC2)cc(C)c1-c1ccc(F)c(COc2ccc([C@H]3C[C@@H]3C(=O)O)nc2)c1 came out at 7.62

Reported pEC50 of COc1cc(-c2cc(C)c(-c3cccc(COc4ccc([C@H]5C[C@@H]5C(=O)O)nc4)c3)c(C)c2)ccn1 : 8.22

Entry under test: Cc1cc(-c2cnccn2)cc(C)c1-c1cccc(COc2ccc([C@H]3C[C@@H]3C(=O)O)nc2)c1 . Its pEC50 was 7.96

----------
# ASSAY_PROTOCOL: Aqueous solubility (buffer vs acetonitrile/water, LC-UV)
# Type: physicochemical
# ASSAY_CONDITIONS: kinetic from dmso stock, pH 6.8, 24 h shaking, 2.5% DMSO, read-out: Solubility at pH 6.8
Entries annotated with measured solubility at 24 h
Value expressed in µg/mL; do not type the unit.

[[record]]
smiles_string = "Cc1cc(OCCC(C)(C)O)cc(C)c1-c1cccc(COc2ccc([C@H]3C[C@@H]3C(=O)O)nc2)c1"
recorded_metric = "solubility at 24 h"
assay_result = 40


We now examine a further compound.
Record Cc1cc(-c2nnn(C)n2)cc(C)c1-c1cccc(COc2ccc([C@H]3C[C@@H]3C(=O)O)nc2)c1 . Reported solubility at 24 h: 19

----------
# ASSAYED_TARGET: human GPR40 receptor (Homo sapiens)
# ASSAY_PROTOCOL: IP1 accumulation measurements using the IPOne assay system
# Format: cell-based
# ASSAY_CONDITIONS: 1321N1 cells stably expressing human GPR40; 1 h stimulation at 37° C.
Measured EC50, listed per entry for reference.
Number first, unit second.

[[record]]
compound = "Cc1cc(-c2cnccn2)cc(C)c1-c1ccc(F)c(COc2ccc([C@H]3C[C@@H]3C(=O)O)nc2)c1 [Example 19]"
assayed_target = "human GPR40 receptor (Homo sapiens)"
recorded_metric = "EC50"
assay_result = "7 nM"

[[record]]
compound = "Cc1cc(OCCC(C)(C)O)cc(C)c1-c1cc(COc2ccc([C@H]3C[C@@H]3C(=O)O)nc2)c(F)cc1F [Example 26]"
assayed_target = "human GPR40 receptor (Homo sapiens)"
recorded_metric = "EC50"
assay_result = "12 nM"

[[record]]
compound = "Cc1cc(O[C@H]2CCOC2)cc(C)c1-c1cccc(COc2ccc([C@H]3C[C@@H]3C(=O)O)nc2)c1 [Example 12]"
assayed_target = "human GPR40 receptor (Homo sapiens)"
recorded_metric = "EC50"
assay_result = "27 nM"

[[record]]
compound = "Cc1cc(-c2nnn(CC(C)(C)O)n2)cc(C)c1-c1cccc(COc2ccc([C@H]3C[C@@H]3C(=O)O)nc2)c1 [Example 6]"
assayed_target = "human GPR40 receptor (Homo sapiens)"
recorded_metric = "EC50"
assay_result = "9 nM"

[[record]]
compound = "Cc1cc(C(=O)O)cc(C)c1-c1ccc(F)c(COc2ccc([C@H]3C[C@@H]3C(=O)O)nc2)c1 [Example 24]"
assayed_target = "human GPR40 receptor (Homo sapiens)"
recorded_metric = "EC50"
assay_result = "2120 nM"

[[record]]
compound = "Cc1cc(-c2nnn(C)n2)cc(C)c1-c1cccc(COc2ccc([C@H]3C[C@@H]3C(=O)O)nc2)c1 [Example 1]"
assayed_target = "human GPR40 receptor (Homo sapiens)"
recorded_metric = "EC50"
assay_result = "5 nM"

[[record]]
compound = "O=C(O)[C@H]1C[C@@H]1c1ccc(OCc2cccc(-c3c(Cl)cccc3Cl)c2)cn1 [Example 15]"
assayed_target = "human GPR40 receptor (Homo sapiens)"
recorded_metric = "EC50"
assay_result = "24 nM"

[[record]]
compound = "COc1cc(-c2cc(C)c(-c3ccc(F)c(COc4ccc([C@H]5C[C@@H]5C(=O)O)nc4)c3)c(C)c2)ccn1 [Example 20]"
assayed_target = "human GPR40 receptor (Homo sapiens)"
recorded_metric = "EC50"
assay_result = "5 nM"

[[record]]
compound = "Cc1cc(OCC2CCCO2)cc(C)c1-c1cccc(COc2ccc([C@H]3C[C@@H]3C(=O)O)nc2)c1 (stereo partly drawn) [Example 11]"
assayed_target = "human GPR40 receptor (Homo sapiens)"
recorded_metric = "EC50"
assay_result = "32 nM"

[[record]]
compound = "CC(C)(O)CCOc1ccc(-c2cc(COc3ccc([C@H]4C[C@@H]4C(=O)O)nc3)ccc2C(F)(F)F)cc1 [Example 30]"
assayed_target = "human GPR40 receptor (Homo sapiens)"
recorded_metric = "EC50"
assay_result = "12 nM"


Entry under test: Cc1cc(OCCC(C)(C)O)cc(C)c1-c1cccc(COc2ccc([C@H]3C[C@@H]3C(=O)O)nc2)c1 [Example 3] . Its EC50 was 19 nM

Just so you know, measured EC50 for Cc1cc(-c2ccnn2C)cc(C)c1-c1cccc(COc2ccc([C@H]3C[C@@H]3C(=O)O)nc2)c1 [Example 7] came out at 11 nM

// EC50 lookup, compound = Cc1cc(OCC2CCOCC2)cc(C)c1-c1cccc(COc2ccc([C@H]3C[C@@H]3C(=O)O)nc2)c1 [Example 10] , result: 23 nM

For this compound ( Cc1cc(-c2nnn(C)n2)cc(C)c1-c1ccc(F)c(COc2ccc([C@H]3C[C@@H]3C(=O)O)nc2)c1 [Example 17] ), measured EC50 is 3 nM

Quick note, EC50 for Cc1cnc(-c2cc(C)c(-c3ccc(F)c(COc4ccc([C@H]5C[C@@H]5C(=O)O)nc4)c3)c(C)c2)nc1 [Example 22] landed at 4 nM
